- experimental system: Retinoic acid receptor RXR-alpha (Homo sapiens, UniProt P19793)
- Sequence (P19793 whole entry): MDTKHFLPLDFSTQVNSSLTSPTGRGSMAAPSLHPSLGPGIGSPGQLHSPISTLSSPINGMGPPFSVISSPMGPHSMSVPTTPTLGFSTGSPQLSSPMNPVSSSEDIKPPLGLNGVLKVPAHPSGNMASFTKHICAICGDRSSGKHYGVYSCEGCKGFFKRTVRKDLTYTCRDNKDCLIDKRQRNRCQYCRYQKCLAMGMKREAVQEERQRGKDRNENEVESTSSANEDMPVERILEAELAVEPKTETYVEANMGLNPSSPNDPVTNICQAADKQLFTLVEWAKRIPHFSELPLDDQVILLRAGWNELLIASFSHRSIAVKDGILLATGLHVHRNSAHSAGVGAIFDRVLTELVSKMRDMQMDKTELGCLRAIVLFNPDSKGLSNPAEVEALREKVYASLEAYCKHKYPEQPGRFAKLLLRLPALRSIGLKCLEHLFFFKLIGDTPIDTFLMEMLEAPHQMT
- procedure details: Inhibition of 9-cis-retinoic acid-induced RXRalpha transactivation
IC50 under 500 nM gets yes (1), anything at or over 500 nM gets no (0).

Does the reported IC50 of CN1c2ccc(S(C)(=O)=O)cc2N=C(c2ccc(C(=O)O)cc2)c2cc3c(cc21)C(C)(C)CCC3(C)C stay below 500 nM?
no (0)

And the next one, CN1c2ccc(C#N)cc2N=C(c2ccc(C(=O)O)c(F)c2)c2cc3c(cc21)C(C)(C)CCC3(C)C ?
no (0)

And the next one, CCCCNS(=O)(=O)c1ccc2c(c1)N=C(c1ccc(C(=O)O)cc1)c1cc3c(cc1N2C)C(C)(C)CCC3(C)C ?
yes (1)

And the next one, COc1ccc(CS(=O)(=O)c2ccc3c(c2)N=C(c2ccc(C(=O)O)cc2)c2cc4c(cc2N3C)C(C)(C)CCC4(C)C)cc1 ?
no (0)

And the next one, CN1c2ccc(S(=O)(=O)N(C)C)cc2N=C(c2ccc(C(=O)O)cc2)c2cc3c(cc21)C(C)(C)CCC3(C)C ?
no (0)

Others:
Does the reported IC50 of CCN1c2ccc(C(C)=O)cc2N=C(c2ccc(C(=O)O)cc2F)c2cc3c(cc21)C(C)(C)CCC3(C)C stay below 500 nM?
no (0)

* * *

Overview of recorded pIC50 for various compounds
- experimental system: Retinoic acid receptor RXR-alpha (Homo sapiens)
- procedure details: Inhibition of 9-cis-retinoic acid-induced RXRalpha transactivation
When answering, recall that pIC50 equals minus log10 of the concentration in mol/L, and write that number alone.

Example cases with answers are listed next.
Param item = CN1c2ccc(S(=O)(=O)Cc3ccc(Cl)cc3)cc2N=C(c2ccc(C(=O)O)cc2)c2cc3c(cc21)C(C)(C)CCC3(C)C ; retrieve measured pIC50.
6.38

And the next one, CN1c2ccc(Sc3ccc(OC(F)(F)F)cc3)cc2N=C(c2ccc(C(=O)O)cc2)c2cc3c(cc21)C(C)(C)CCC3(C)C ?
6.41

And the next one, CNS(=O)(=O)c1ccc2c(c1)N=C(c1ccc(C(=O)O)cc1)c1cc3c(cc1N2C)C(C)(C)CCC3(C)C ?
5.89

Others:
Param item = CSc1ccc2c(c1)N=C(c1ccc(C(=O)O)cc1)c1cc3c(cc1N2C)C(C)(C)CCC3(C)C ; retrieve measured pIC50.
5.70

And the next one, CC(=O)c1ccc2c(c1)N=C(c1ccc(C(=O)O)cc1)c1cc3c(cc1N2C)C(C)(C)CCC3(C)C ?
6.05

And the next one, CCN1c2ccc(C#N)cc2N=C(c2ccc(C(=O)O)cc2F)c2cc3c(cc21)C(C)(C)CCC3(C)C ?
6.28

And the next one, CCN1c2ccc(C#N)cc2N=C(c2ccc(C(=O)O)cc2)c2cc3c(cc21)C(C)(C)CCC3(C)C ?
6.49
